Form field: MEAN CORPUSCULAR HEMOGLOBIN (one value per entry).
species: Rattus norvegicus; experiment: DrugMatrix - Regimen: Daily Repeat; format: toxicity, organism-based, Sprague-Dawley; design: regimen Daily Repeat, gender Male, age 6-8 weeks; details: in vivo, po, 0 mg/kg, 72 h, tissue Blood, route oral GAVAGE, dose level Control, time 3 day, vehicle .5 % CMC
Use pg as the unit, but write only the number.

Examples with their reported MEAN CORPUSCULAR HEMOGLOBIN follow.
{"compound": "O=C1CCC(N2C(=O)c3ccccc3C2=O)C(=O)N1 (stereo not drawn) [THALIDOMIDE]", "MEAN CORPUSCULAR HEMOGLOBIN [pg]": 19.57}
{"compound": "CNC(=C[N+](=O)[O-])NCCSCc1ccc(CN(C)C)o1", "MEAN CORPUSCULAR HEMOGLOBIN [pg]": 24.67}
{"compound": "CC(C)[C@H]1CC[C@H](C(=O)N[C@H](Cc2ccccc2)C(=O)O)CC1 [NATEGLINIDE]", "MEAN CORPUSCULAR HEMOGLOBIN [pg]": 25}

Returns the measured MEAN CORPUSCULAR HEMOGLOBIN for the input compound. Input: `C[C@]1(Cn2ccnn2)[C@H](C(=O)O)N2C(=O)C[C@H]2S1(=O)=O`
23.37

I would be grateful if you could share the reported MEAN CORPUSCULAR HEMOGLOBIN for N=C(N)NC(=O)c1nc(Cl)c(N)nc1N [AMILORIDE] .
24.1

Look up MEAN CORPUSCULAR HEMOGLOBIN for this compound: `CO[C@H]1/C=C/O[C@@]2(C)Oc3c(C)c(O)c4c(c3C2=O)C2=NC3(CCN(CC(C)C)CC3)NC2=C(NC(=O)/C(C)=C\C=C\[C@H](C)[C@H](O)[C@@H](C)[C@@H](O)[C@@H](C)[C@H](OC(C)=O)[C@@H]1C)C4=O`
24.67

Recorded MEAN CORPUSCULAR HEMOGLOBIN of `O=[N+]([O-])c1ccccc1` , please.
21.35

MEAN CORPUSCULAR HEMOGLOBIN for `Clc1ccc2c(c1)C(N1CCNCC1)=Nc1ccccc1O2` ?
25.38

====

species: Rattus norvegicus; assay: DrugMatrix - Regimen: Daily Repeat; type: toxicity, organism-based, Sprague-Dawley; design: regimen Daily Repeat, gender Male, age 6-8 weeks; details: in vivo, po, 0 mg/kg, 120 h, tissue Blood, route oral GAVAGE, dose level Control, time 5 day, vehicle 100 % WATER
Entries and their NUCLEATED RED BLOOD CELLS values follow.

{"molecule": "C[N+](C)(C)CCO.[Cl-] [CHOLINE CHLORIDE]", "reportedResult": "0.17 /100WBC"}

What value of measured NUCLEATED RED BLOOD CELLS is listed for COC(=O)C1=C(C)NC(C)=C(C(=O)OCC(C)C)C1c1ccccc1[N+](=O)[O-] (stereo not given) ?
0.17 /100WBC

Which NUCLEATED RED BLOOD CELLS value is on record for `CC(C)C[C@H](NC(=O)[C@@H](O)[C@H](N)Cc1ccccc1)C(=O)O` ?
0.17 /100WBC

Entry under review: CC(C)NCC(O)COc1cccc2ccccc12 (stereo not given) . Reported NUCLEATED RED BLOOD CELLS?
0.33 /100WBC

Quick check: NUCLEATED RED BLOOD CELLS of `Nc1ccn([C@@H]2CS[C@H](CO)O2)c(=O)n1` ?
0 /100WBC

The values you see were collected from ChEMBL document CHEMBL3885881.
